- Tested on: OvCAR3 cells
- experiment summary: Cellular proliferation / Cytotoxicity assay (Alamar Blue)
- Format: cell-based
- applied conditions: Homo sapiens, OVCAR-3, 48h incubation, Alamar Blue (Resazurin) cell viability, read-out: Anti-proliferative / Cytotoxic activity (OvCAR3 cells)
pIC50: −log10 of the molar value.
measured property: pIC50

These recorded examples may help you get a feel for the data.
>>> df
                                   molecule  reported_value
0  CCc1cn2cc(-c3ccccc3)c(-c3ccc(CN4CCC(c5n[nH]c(-c6ccccn6)n5)CC4)cc3)nc2n1          > 6.00
1  c1ccc(-c2cn3ccnc3nc2-c2ccc(CN3CCC(c4nc(-c5ccccn5)n[nH]4)CC3)cc2)cc1          < 6.00
2  c1ccc(-c2cn3nc(C4CCC4)nc3nc2-c2ccc(CN3CCC(c4n[nH]c(-c5ccccn5)n4)CC3)cc2)cc1          > 6.00
3  CNc1c(-c2ccccc2)c(-c2ccc(CN3CCC(c4n[nH]c(-c5ccccn5)n4)CC3)cc2)nc2nccn12          < 6.00

Q. Give its pIC50 value. Item: c1ccc(-c2cn3nccc3nc2-c2ccc(CN3CCC(c4n[nH]c(-c5ccccn5)n4)CC3)cc2)cc1
A. > 6.00

Q. Entry to check: c1ccc(-c2cn3ccnc3nc2-c2ccc(CN3CCC(n4cnc(-c5ccccn5)c4)CC3)cc2)cc1
A. < 6.00

Q. And for c1ccc(-c2cn3ccnc3nc2-c2ccc(CN3CCC(c4n[nH]c(-c5cnccn5)n4)CC3)cc2)cc1 ?
A. < 6.00

###

Each item that follows carries a reported IC50.
- System: phosphorylated GSK3 (Ser9)
- experiment summary: Cellular pGSK3 assay (phospho-GSK3 ELISA)
- Format: cell-based
- applied conditions: Homo sapiens, MCF7 cells, compound incubated 48h
- Protocol: In order to study the cellular activity of the compounds according to the present invention, an ELISA-based assay has been established for the phosphorylated protein glycogen synthetase kinase 3 (GSK3). […] The absorbance was measured at λ = 450 nm (Wallac Victor2; Perkin Elmer, USA) within 30 min. after adding the stop solution. The analysis of the data was performed using a statistical program (Excel; Microsoft, USA) and the IC50 of pGSK3 inhibition was determined.

In [3]: df
Out[3]:
                                   molecule    reported_value
0  Cc1cnc2nc(-c3ccc(CN4CCC(c5n[nH]c(-c6ccccn6)n5)CC4)cc3)c(-c3ccccc3)cn12  1000 to 10000 nM
1  Brc1cnc2nc(-c3ccc(CN4CCC(c5n[nH]c(-c6ccccn6)n5)CC4)cc3)c(-c3ccccc3)cn12         < 1000 nM
2  c1ccc(-c2cn3ccnc3nc2-c2ccc(CN3CCC(c4n[nH]c(-c5ccncc5)n4)CC3)cc2)cc1  1000 to 10000 nM
3  c1ccc(-c2cn3ccnc3nc2-c2ccc(CN3CCC(c4n[nH]c(-c5ncccn5)n4)CC3)cc2)cc1  1000 to 10000 nM
4  Clc1cnc2nc(-c3ccc(CN4CCC(c5n[nH]c(-c6ccccn6)n5)CC4)cc3)c(-c3ccccc3)cn12  1000 to 10000 nM

Q. So what does the record say about IC50 for C#Cc1cnc2nc(-c3ccc(CN4CCC(c5n[nH]c(-c6ccccn6)n5)CC4)cc3)c(-c3ccccc3)cn12 ?
A. 1000 to 10000 nM

Q. Next: c1ccc(-c2cn3ccnc3nc2-c2ccc(CN3CCC(c4nc(-c5ccccn5)n[nH]4)CC3)cc2)cc1
A. < 1000 nM
